Listed here are molecules together with their documented Ratio CC50/IC50.
Assay: Selectivity index, ratio of CC50 for human HepG2(2.2.15) cells to IC50 for Hepatitis B virus infected in human HepG2(2.2.15) cells assessed as inhibition of viral DNA replication
Type: functional

Solved entries:
CC(=O)[C@]1(O)CC[C@@]2(O)[C@]1(C)[C@H](OC(=O)/C=C(\C)C(C)C)C[C@@H]1[C@@]3(C)CC[C@H](OC(=O)/C=C/c4cccc(F)c4)CC3=CC[C@]12O :: >224
CC(=O)[C@]1(O)CC[C@@]2(O)[C@]1(C)[C@H](OC(=O)/C=C(\C)C(C)C)C[C@@H]1[C@@]3(C)CC[C@H](OC(=O)/C=C/c4cccc(C(F)(F)F)c4)CC3=CC[C@]12O :: 48.3
C[C@H](Cn1cnc2c(N)ncnc21)OCP(=O)(O)O [TENOFOVIR ANHYDROUS] :: >2560.2
CC(=O)[C@]1(O)CC[C@@]2(O)[C@]1(C)[C@H](OC(=O)/C=C(\C)C(C)C)C[C@@H]1[C@@]3(C)CC[C@H](OC(=O)/C=C/c4ccc(F)c(F)c4)CC3=CC[C@]12O :: >277
CC(=O)[C@]1(O)CC[C@@]2(O)[C@]1(C)[C@H](OC(=O)/C=C(\C)C(C)C)C[C@@H]1[C@@]3(C)CC[C@H](OC(=O)/C=C/c4ccc(C)cc4)CC3=CC[C@]12O :: 46

# input for lookup
Req: Query: Ratio CC50/IC50; subject: `CC(=O)[C@]1(O)CC[C@@]2(O)[C@]1(C)[C@H](OC(=O)/C=C(\C)C(C)C)C[C@@H]1[C@@]3(C)CC[C@H](OC(=O)/C=C/c4ccc5c(c4)OCO5)CC3=CC[C@]12O`
Resp: >256.7
